The measurements presented in this section are drawn from patent US20190359693A1.

Target system: hemagglutinin (HA) of influenza B/Brisbane/60/08 (Victoria) (influenza B virus)
Procedure text: cell-based or functional assay

{"columns": ["Binder", "VNA IC50"],
 "data": [
  ["SD3001 (VHH) VHH: EVQLVESGGGLVQPGGSLRLSCAASGFTFSTSWMSWLRQAPGKGLEWVSVINTDGGTYYADSVKGRFTISRDNSKNTLYLQMNSLRAEDTAVYYCAKDWGGPEPTRGQGTQVTVSS", "101 nM"],
  ["SD3071 (VHH) VHH: EVQLVESGGGLVQPGGSLRLSCAISGLSLDTYAVGWFRQAPGKEREGITCISSGHGLTYYADSVKGRFTVSTDNSKNTLYLQMNSLRAEDTAVYYCATESRYYCSDNWPAPQRYIYWGQGTLVTVSS", "> 1000 nM"]
]}
